System: PC-14 (Lung Adenocarcinoma)
Assay: Bliss excess, mean over the matrix (fraction); higher = more synergy
REPORTED_PROPERTY: Bliss excess
Quick one: just the number, no unit, thanks!

Need Bliss excess, item N#Cc1cnc(Nc2cc(NC[C@H]3CNCCO3)c(C(F)(F)F)cn2)cn1 [SRA737] + CCc1c2c(nc3ccc(O)cc13)-c1cc3c(c(=O)n1C2)COC(=O)[C@]3(O)CC [SN-38] (first compound max 10 µM, 7x7, partner max 0.3 µM) 0.0164

---

System: HTC-C3 (Thyroid Gland Carcinoma)
Test: combination Emax (second highest fraction inhibited in the dose matrix, 72 h); higher = more inhibition; extreme values may be limits of the assay
// reported combination Emax per item
Format: numeric value only, no unit, no commentary.

| COMPOUND | combination Emax |
| --- | --- |
| CC(=O)c1c(C)c2cnc(Nc3ccc(N4CCNCC4)cn3)nc2n(C2CCCC2)c1=O [Palbociclib] + Cn1cnc2c(F)c(Nc3ccc(Br)cc3Cl)c(C(=O)NOCCO)cc21 [Selumetinib] (first compound max 10 µM, 7x7, partner max 10 µM) | 0.728 |

Would you kindly look at the next entry?
State the recorded combination Emax for this entry: C[C@@H](c1ccc2nccn2c1)n1nnc2ncc(-c3cnn(C)c3)nc21 [Savolitinib] + CC1(C)CCC(CN2CCN(c3ccc(C(=O)NS(=O)(=O)c4ccc(NCC5CCOCC5)c([N+](=O)[O-])c4)c(Oc4cnc5[nH]ccc5c4)c3)CC2)=C(c2ccc(Cl)cc2)C1 [Venetoclax] (first compound max 1 µM, 7x7, partner max 1 µM) 0.127

---

System: SJRH30 (Rhabdomyosarcoma)
Assay: Bliss excess, mean over the matrix (fraction); higher = more synergy
If the reported Bliss excess equals or exceeds -0.03, assign Fulfilled. If not, assign Not fulfilled.

Known results for compounds:
| COMPOUND | GROUP |
| --- | --- |
| CC(=O)c1c(C)c2cnc(Nc3ccc(N4CCNCC4)cn3)nc2n(C2CCCC2)c1=O [Palbociclib] + CC1(C)CCC(CN2CCN(c3ccc(C(=O)NS(=O)(=O)c4ccc(NCC5CCOCC5)c([N+](=O)[O-])c4)c(Oc4cnc5[nH]ccc5c4)c3)CC2)=C(c2ccc(Cl)cc2)C1 [Venetoclax] (first compound max 10 µM, 7x7, partner max 1 µM) | Not fulfilled |
| C=CCn1c(=O)c2cnc(Nc3ccc(N4CCN(C)CC4)cc3)nc2n1-c1cccc(C(C)(C)O)n1 [AZD1775] + C1CN(CCC1(C(=O)N[C@@H](CCO)C2=CC=C(C=C2)Cl)N)C3=NC=NC4=C3C=CN4 [Capivasertib] (first compound max 3 µM, partner max 3 µM) | Fulfilled |
| CS(=O)(=O)CCNCc1ccc(-c2ccc3ncnc(Nc4ccc(OCc5cccc(F)c5)c(Cl)c4)c3c2)o1 [Lapatinib] + C[C@@H](Oc1cc(-c2cnn(C3CCNCC3)c2)cnc1N)c1c(Cl)ccc(F)c1Cl [Crizotinib] (first compound max 10 µM, 7x7, partner max 10 µM) | Not fulfilled |
| Cc1cc2ncnn2cc1Nc1ncc2c(n1)n(C1CCOCC1)c(=O)n2C [AZD7648] + CN(C)CCCOc1ccc(-c2ccc3ncc4c(c3c2)n(C2CCOCC2)c(=O)n4C)cn1 [AZD0156] (first compound max 10 µM, 7x7, partner max 1 µM) | Fulfilled |
| CC(=O)Nc1cccc(-n2c(=O)n(C3CC3)c(=O)c3c(Nc4ccc(I)cc4F)n(C)c(=O)c(C)c32)c1 [Trametinib] + Cc1nc(-c2cn3c(n2)-c2ccc(-c4cnn(C(C)(C)C(N)=O)c4)cc2OCC3)n(C(C)C)n1 [Taselisib] (first compound max 1 µM, 7x7, partner max 10 µM) | Fulfilled |
| Cc1nc(Nc2ncc(C(=O)Nc3c(C)cccc3Cl)s2)cc(N2CCN(CCO)CC2)n1 [Dasatinib] + CC(=O)Nc1cccc(-n2c(=O)n(C3CC3)c(=O)c3c(Nc4ccc(I)cc4F)n(C)c(=O)c(C)c32)c1 [Trametinib] (first compound max 2 µM, 7x7, partner max 1 µM) | Not fulfilled |

Here is another compound to look at.
Does Bliss excess meet or surpass -0.03 for CC1(C)CCC(CN2CCN(c3ccc(C(=O)NS(=O)(=O)c4ccc(NCC5CCOCC5)c([N+](=O)[O-])c4)c(Oc4cnc5[nH]ccc5c4)c3)CC2)=C(c2ccc(Cl)cc2)C1 [Venetoclax] + C1CN(CCC1(C(=O)N[C@@H](CCO)C2=CC=C(C=C2)Cl)N)C3=NC=NC4=C3C=CN4 [Capivasertib] (first compound max 1 µM, 7x7, partner max 3 µM) ? Fulfilled
